Target: Adenosine receptor A1 (Homo sapiens)
Assay: Displacement [3H]DPCPX from human adenosine A1 receptor expressed in CHO cell membranes at 1 uM incubated for 60 mins by scintillation counting method relative to control
Reported inhibition by item:

{"compound": "CC1=C(C(=O)OC(C)C)C(c2ccns2)n2c(nc3ccccc32)N1 (racemic)", "units": "%", "inhibition": 24}
{"compound": "CC1=C(C(=O)OC(C)C)C(c2cc[nH]c2)n2c(nc3ccccc32)N1 (racemic)", "units": "%", "inhibition": 19}
{"compound": "CCOC(=O)C1=C(C)Nc2nc3ccccc3n2C1C1CCCC1 (racemic)", "units": "%", "inhibition": 11}
{"compound": "CC1=C(C(=O)OC(C)C)C(c2cnsc2)n2c(nc3ccccc32)N1 (racemic)", "units": "%", "inhibition": 9}
{"compound": "CC1=C(C(=O)OC(C)C)C(c2ncc[nH]2)n2c(nc3ccccc32)N1 (racemic)", "units": "%", "inhibition": 2}
{"compound": "CC1=C(C(=O)OC(C)C)C(c2ccc[nH]2)n2c(nc3ccccc32)N1 (racemic)", "units": "%", "inhibition": 38}
{"compound": "CC1=C(C(=O)OC(C)C)C(c2cscn2)n2c(nc3ccccc32)N1 (racemic)", "units": "%", "inhibition": 1}
{"compound": "CC1=C(C(=O)OC(C)C)C(c2c[nH]cn2)n2c(nc3ccccc32)N1 (racemic)", "units": "%", "inhibition": 5}

----------
Reported inhibition by item:
Biological target: Adenosine receptor A1 (Homo sapiens) (UniProt P30542)
Sequence (P30542 whole entry): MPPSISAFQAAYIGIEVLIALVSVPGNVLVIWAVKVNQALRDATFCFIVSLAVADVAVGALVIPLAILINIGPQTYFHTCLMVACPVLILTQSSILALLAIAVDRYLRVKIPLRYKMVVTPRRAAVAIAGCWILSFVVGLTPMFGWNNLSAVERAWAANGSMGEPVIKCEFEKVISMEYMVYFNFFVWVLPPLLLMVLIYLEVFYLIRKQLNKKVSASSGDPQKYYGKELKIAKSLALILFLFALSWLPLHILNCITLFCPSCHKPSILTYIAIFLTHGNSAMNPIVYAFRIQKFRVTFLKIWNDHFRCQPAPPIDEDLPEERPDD
Assay: Displacement [3H]DPCPX from human adenosine A1 receptor expressed in CHO cell membranes at 1 uM incubated for 60 mins by scintillation counting method relative to control

{"compound": "CCOC(=O)C1=C(C)Nc2nc3ccccc3n2C1c1nccs1 (racemic)", "inhibition, %": 3}
{"compound": "CC1=C(C(=O)OC(C)C)C(C2CCCC2)n2c(nc3ccccc32)N1 (racemic)", "inhibition, %": 14}
{"compound": "CCOC(=O)C1=C(C)Nc2nc3ccccc3n2C1c1ccc[nH]1 (racemic)", "inhibition, %": 45}

Values from ChEMBL document CHEMBL4616721
